- TEST_SYSTEM: HCV RNA-dependent RNA polymerase (NS5B) (Hepatitis C virus genotype 1b (isolate BK) (HCV))
- METHOD_DESCRIPTION: RNA-Dependent RNA HCV NS5B (polymerase) Assay and IC50 Determination
- Assay type: biochemical
- CONDITIONS: purified HCV NS5B polymerase, polyA:U16 substrate, 32P-UTP incorporation; read-out: IC50
pIC50: −log10 of the molar value.
PROPERTY: pIC50

# annotated cases, reported pIC50 shown
CNC(=O)c1c(-c2ccc(F)cc2)oc2cc(N(CCOCCOCCOC(C(=O)NO)c3ccccc3)S(C)(=O)=O)c(C3CC3)cc12 (stereo not drawn) [Compound 25-6] ... < 6.00
CCOC(=O)c1cccc(OCCOCCOCCN(c2cc3oc(-c4ccc(F)cc4)c(C(=O)NC)c3cc2C2CC2)S(C)(=O)=O)c1 [Compound 14-6B] ... < 6.00
CNC(=O)c1c(-c2ccc(F)cc2)oc2cc(N(CCOCCCCCOCC(=O)OC(C)(C)C)S(C)(=O)=O)c(C3CC3)cc12 [Compound 27-8A] ... < 6.00
CCOC(=O)c1ccccc1OCCOCCOCCN(c1cc2oc(-c3ccc(F)cc3)c(C(=O)NC)c2cc1C1CC1)S(C)(=O)=O [Compound 14-6A] ... 6.00 to 7.00
CNC(=O)c1c(-c2ccc(F)cc2)oc2cc(N(CCOCCOCc3ccc(C(=O)OC)cc3)S(C)(=O)=O)c(C3CC3)cc12 [Compound 06-6B] ... < 6.00

Would you kindly look at the next entry?
Prompt: Given the entry CNC(=O)c1c(-c2ccc(F)cc2)oc2cc(N(CCOCCOCCOCc3ccc(C(=O)/C=C(\O)C(=O)O)cc3)S(C)(=O)=O)c(C3CC3)cc12 [Compound 02-10G] , report its measured pIC50.
Completion: < 6.00

###

- TEST_SYSTEM: HCV RNA-dependent RNA polymerase (NS5B) (Hepatitis C virus genotype 1b (isolate BK) (HCV), UniProt P26663)
- Sequence (P26663 2420-3010): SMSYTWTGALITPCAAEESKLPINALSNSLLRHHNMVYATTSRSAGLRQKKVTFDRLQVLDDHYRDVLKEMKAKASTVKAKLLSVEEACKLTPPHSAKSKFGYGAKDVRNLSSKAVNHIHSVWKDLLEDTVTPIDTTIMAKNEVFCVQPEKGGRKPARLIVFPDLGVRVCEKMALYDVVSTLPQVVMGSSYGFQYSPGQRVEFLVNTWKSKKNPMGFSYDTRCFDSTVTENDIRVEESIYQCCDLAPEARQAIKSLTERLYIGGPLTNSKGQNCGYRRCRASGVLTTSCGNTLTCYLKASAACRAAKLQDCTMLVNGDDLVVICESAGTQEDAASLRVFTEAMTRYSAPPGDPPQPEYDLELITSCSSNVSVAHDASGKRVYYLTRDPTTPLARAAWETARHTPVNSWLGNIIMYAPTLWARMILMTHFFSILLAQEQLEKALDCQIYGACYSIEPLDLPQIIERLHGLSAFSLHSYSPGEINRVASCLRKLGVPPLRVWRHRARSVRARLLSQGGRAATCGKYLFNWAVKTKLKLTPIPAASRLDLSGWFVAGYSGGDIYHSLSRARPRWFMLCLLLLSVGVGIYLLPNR
- METHOD_DESCRIPTION: RNA-Dependent RNA HCV NS5B (polymerase) Assay and IC50 Determination
- Format: biochemical
- CONDITIONS: purified HCV NS5B polymerase, polyA:U16 substrate, 32P-UTP incorporation; read-out: IC50
PROPERTY: IC50

Illustrative cases are given below, each with its answer.
CCOC(=O)COC(=O)c1ccc(COCCOCCN(c2cc3oc(-c4ccc(F)cc4)c(C(=O)NC)c3cc2C2CC2)S(C)(=O)=O)cc1 [Compound 06-8B8] ... 100 to 1000 nM
CNC(=O)c1c(-c2ccc(F)cc2)oc2cc(N(CCCOCCCc3ccc(C(=O)OC)cc3)S(C)(=O)=O)c(C3CC3)cc12 [Compound 13-7B] ... 100 to 1000 nM
CNC(=O)c1c(-c2ccc(F)cc2)oc2cc(N(CCOCCOCCCc3ccccc3C(=O)O)S(C)(=O)=O)c(C3CC3)cc12 [Compound 12-7A] ... < 100 nM
CNC(=O)c1c(-c2ccc(F)cc2)oc2cc(N(CCOCCOCCOCCN)S(C)(=O)=O)c(C3CC3)cc12 [Compound 04-10] ... > 1000 nM
CNC(=O)c1c(-c2ccc(F)cc2)oc2cc(N(CCOCCOCc3ccc(C(=O)OC)c([N+](=O)[O-])c3)S(C)(=O)=O)c(C3CC3)cc12 [Compound 29-7] ... 100 to 1000 nM

Shift focus to the following entry.
Prompt: What value of IC50 has been reported for the following molecule? CNC(=O)c1c(-c2ccc(F)cc2)oc2cc(N(CCOCCOCCOCCOC)S(C)(=O)=O)c(C3CC3)cc12 [Compound 05-4A]
Completion: > 1000 nM
